Here, each record is paired with measured pEC50 data.
- target_of_assay: T1, human angiopoietin-2 (human, UniProt O15123 19-496, limits assumed)
- T1 construct: Bought recombinant protein with a His tag (detected by anti-HIS-tag antibody); also called human Ang-2; hAng-2
- T1 sequence (looked up): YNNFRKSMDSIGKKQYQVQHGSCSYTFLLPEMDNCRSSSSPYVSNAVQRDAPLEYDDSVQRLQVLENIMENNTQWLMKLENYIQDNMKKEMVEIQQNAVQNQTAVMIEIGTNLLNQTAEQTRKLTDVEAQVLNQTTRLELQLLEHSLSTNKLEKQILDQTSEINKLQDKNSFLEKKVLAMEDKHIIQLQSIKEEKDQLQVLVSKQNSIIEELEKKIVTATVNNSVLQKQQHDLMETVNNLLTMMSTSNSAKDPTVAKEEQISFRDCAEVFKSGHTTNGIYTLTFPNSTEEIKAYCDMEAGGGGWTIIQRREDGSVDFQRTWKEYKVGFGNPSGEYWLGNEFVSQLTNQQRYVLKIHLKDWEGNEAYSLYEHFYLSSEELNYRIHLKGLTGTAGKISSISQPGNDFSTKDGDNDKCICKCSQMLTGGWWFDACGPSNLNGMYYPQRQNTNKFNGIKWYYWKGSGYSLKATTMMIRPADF
- test_details: ELISA; Ang-2 coated, mutein detected by anti-Streptag-HRP
Notebook: values listed as pEC50 are -log10 of the concentration (mol/L).

For orientation, consider the following solved cases.
binder	pEC50
hNGAL lipocalin mutein SEQ ID NO: 11 (designed binder, Mutein of mature hNGAL; Biotinylated with NHS-PEG4-Biotin for the SPR assay) QDSTSDLIPAPPLSKVPLQQNFQDNQFHGKWYVVGQAGNYILREDKDPVKMWATIYELKEDKSYDVTEVSFGPKKCNYRIWTFVPGSQPGEFTLGGIKSLPGGTSTLVRVVSTNYNQHAMVFFKHVLQNREFFEITLYGRTKELTSELKENFIRFSKSLGLPENHIVFPVPIDQCIDGSAWSHPQFEK	8.64
hNGAL lipocalin mutein SEQ ID NO: 5 (designed binder, Mutein of mature hNGAL) QDSTSDLIPAPPLSKVPLQQNFQDNQFHGKWYVVGQAGNYWLREDKDPIKMSATIYELKEDKSYNVTIVYFTRKKCSYRIYTFVPGSQPGEFTLGPIKSYPGDTSTLVRVVSTNYNQHAMVFFKHVYQNREWFEITLYGRTKELTSELKENFIRFSKSLGLPENHIVFPVPIDQCIDGSAWSHPQFEK	8.46
hNGAL lipocalin mutein SEQ ID NO: 8 (designed binder, Mutein of mature hNGAL; Biotinylated with NHS-PEG4-Biotin for the SPR assay) QDSTSDLIPAPPLSKVPLQQNFQDNQFHGKWYVVGQAGNYILREDKDPGKMWATIYELKEDKSYDVTEVSFGAKKCNYRIWTFVPGSQPGEFTLGGIKSDPGGTSTLVRVVSTNYNQHAMVFFKHVLQNREFFEITLYGRTKELTSELKENFIRFSKSLGLPENHIVFPVPIDQCIDGSAWSHPQFEK	8.62
hNGAL lipocalin mutein SEQ ID NO: 7 (designed binder, Mutein of mature hNGAL; Biotinylated with NHS-PEG4-Biotin for the SPR assay) QDSTSDLIPAPPLSKVPLQQNFQDNQFHGKWYVVGHAGNYILREDKDPEKMWATIYELKEDKSYDVTEVSFGPKKCNYRIWTFVPGSQPGEFTLGGIKSPPGDTSTLVRVVSTNYNQHAMVFFKHVLQNREFFEITLYGRTKELTSELKENFIRFSKSLGLPENHIVFPVPIDQCIDGSAWSHPQFEK	8.68
hNGAL lipocalin mutein SEQ ID NO: 1 (designed binder, Mutein of mature hNGAL) QDSTSDLIPAPPLSKVPLQQNFQDNQFHGKWYVVGQAGNYILREDKDPGKMWATIYELKEDKSYNVTGVSFGPKKCNYTIWTFVPGSQPGEFTLGGIKSPPGGTSTLVRVVSTNYNQHAMVFFKHVLQNREFFEITLYGRTKELTSELKENFIRFSKSLGLPENHIVFPVPIDQCIDGSAWSHPQFEK	8.43

INPUT: Value lookup for pEC50; key = hNGAL lipocalin mutein SEQ ID NO: 3 (designed binder, Mutein of mature hNGAL) QDSTSDLIPAPPLSKVPLQQNFQDNQFHGKWYVVGVAGNWYLREDKDPIKMTATIYELKEDKSYNVTQVGFEQKKCKYSIHTFVPGSQPGEFTLGDIKSWPGDTSLLVRVVSTNYNQHAMVFFKGVMQNREVFAITLYGRTKELTSELKENFIRFSKSLGLPENHIVFPVPIDQCIDGSAWSHPQFEK
OUTPUT: 8.55

INPUT: Find the recorded pEC50 belonging to hNGAL lipocalin mutein SEQ ID NO: 2 (designed binder, Mutein of mature hNGAL) QDSTSDLIPAPPLSKVPLQQNFQDNQFHGKWYVVGFAGNHRLREDKDPGKMHATIYELKEDKSYNVTDVTFAFKKCNYRIHTFVPGSQPGEFTLGNIKSWPGETSTLVRVVSTNYNQHAMVFFKTVMQNREWFWITLYGRTKELTSELKENFIRFSKSLGLPENHIVFPVPIDQCIDGSAWSHPQFEK and report it.
OUTPUT: 8.52
